assay_protocol: chemical genetic growth profiling, strain panel (AID 1159580);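 further: tested at 20 µM; growth read once vehicle control cultures reached saturation at 30 °C; lower values mean less growth of the strain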
settings: S. cerevisiae deletion strains, growth OD, locus YDR297W, strain sur2, active compounds read low
The campaign covered roughly 5,500 compounds. About 2,000 (36%) were called active. Inconclusive results (about 18%) are left out. The list shows a part of the results.
Threshold 1: normalized growth strictly smaller gives Met, otherwise Not met.

Problem: Given C=C[C@@](C)(O)CCC1C(=C)C[C@H](OC(C)=O)C2C(C)(C)CCCC12C (stereo partly drawn) , is recorded normalized growth strictly lower than 1?
Result: Not met

Problem: Input O=C(O[C@@H]1Cc2c(O)cc(O)cc2O[C@@H]1c1ccc(O)c(O)c1)c1cc(O)c(O)c(O)c1 ; condition: normalized growth strictly below 1. Does it hold?
Result: Met

Problem: Would you kindly verify if normalized growth of C=C[C@@](C)(O)CCC1C(=C)CCC2[C@@](C)(CO)CCC[C@]12C (stereo partly drawn) is strictly less than 1?
Result: Not met

Problem: Input O=C(/C=C/c1ccc(O)c(O)c1)OCCc1ccccc1 ; condition: normalized growth strictly below 1. Does it hold?
Result: Met

Problem: Confirm or reject: normalized growth of O=C(O[C@@H]1Cc2c(O)cc(O)cc2O[C@@H]1c1cc(O)c(O)c(O)c1)c1cc(O)c(O)c(O)c1 lies strictly below 1
Result: Met

Problem: Is normalized growth of CN(C)CCOC(c1ccc(Cl)cc1)c1ccccn1 (stereo not drawn) strictly below 1?
Result: Not met

Problem: # strict comparison: is reported normalized growth < 1? input = C=CCCCCCCCCCCCc1ccco1
Result: Met

Problem: For this compound, is normalized growth lower than 1? O=C(NC(=O)c1ccccc1Cl)Nc1ccc(OC(F)(F)F)cc1
Result: Not met

Problem: Is normalized growth strictly under 1 for the entry Clc1ccc(C(OCCN2CCCCC2)c2ccccc2)cc1 (stereo not drawn) ?
Result: Not met

Problem: Lab note: confirm whether the reported normalized growth for this compound is below 1, equality not counting. compound: COC(=O)/C=C/C(C)=C/C=C/C(C)=C/C=C/C=C(C)/C=C/C=C(C)/C=C/C(=O)O
Result: Not met

Problem: In plain terms, does CC[C@@]1(O)C[C@H](O)c2c(cc3c(c2O)C(=O)c2c(O)ccc(O)c2C3=O)[C@H]1C(=O)OC come in under 1 for normalized growth?
Result: Met

Problem: Below 1 on normalized growth? Entry CC[C@@H](C(=O)C(C)[C@@H](O)[C@H](C)CCc1ccc(C)c(O)c1C(=O)O)C1OC(CC)(C2CC[C@](O)(CC)[C@H](C)O2)C[C@@H]1C (stereo partly drawn)
Result: Not met

Problem: Lab note: normalized growth threshold 1. Does this compound come in strictly under it? CC[C@@]1(O)C[C@H](O[C@H]2C[C@H](N(C)C)[C@H](O)[C@H](C)O2)c2c(cc3c(c2O)C(=O)c2c(O)ccc(O)c2C3=O)[C@H]1C(=O)OC
Result: Met

Source: PubChem BioAssay AID1159580
